Biological target: FAP-expressing human WI-38 fibroblasts (Homo sapiens, UniProt Q12884)
Construct: FAP-expressing human WI-38 fibroblasts (ECACC) were cultured in EMEM; host or cells: WI-38 human fibroblasts
Sequence (Q12884 1-760): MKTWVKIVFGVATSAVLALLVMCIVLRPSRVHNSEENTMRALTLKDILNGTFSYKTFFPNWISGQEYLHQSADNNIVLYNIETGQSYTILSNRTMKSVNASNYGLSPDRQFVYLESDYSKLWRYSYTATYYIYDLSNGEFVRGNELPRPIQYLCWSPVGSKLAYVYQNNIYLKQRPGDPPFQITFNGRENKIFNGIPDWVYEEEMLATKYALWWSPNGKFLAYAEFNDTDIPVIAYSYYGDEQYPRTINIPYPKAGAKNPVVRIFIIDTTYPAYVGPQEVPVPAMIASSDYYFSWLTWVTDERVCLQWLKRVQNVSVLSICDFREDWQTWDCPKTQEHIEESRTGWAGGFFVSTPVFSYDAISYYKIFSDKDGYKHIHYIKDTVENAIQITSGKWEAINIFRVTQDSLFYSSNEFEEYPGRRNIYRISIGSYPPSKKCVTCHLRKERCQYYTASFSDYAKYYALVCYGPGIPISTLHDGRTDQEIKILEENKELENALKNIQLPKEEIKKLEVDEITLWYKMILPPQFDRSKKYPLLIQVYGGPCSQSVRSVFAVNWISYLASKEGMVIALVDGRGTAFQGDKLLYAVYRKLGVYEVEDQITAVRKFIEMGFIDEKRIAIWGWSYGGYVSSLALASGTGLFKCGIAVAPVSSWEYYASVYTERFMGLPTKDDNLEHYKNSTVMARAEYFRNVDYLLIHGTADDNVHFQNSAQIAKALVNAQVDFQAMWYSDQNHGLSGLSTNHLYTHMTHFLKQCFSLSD
Assay: Competitive FACS binding assay
Conditions: pIC50 Category (FACS), competition with 3 nM Cy5-labeled compound, 4° C., 1 hour
pIC50: −log10 of the molar value. Numbered stars: 1 amine (or outer) side, 2 acyl side, 3 side chain; on linkers, the order of the positions; unused ones are H or OH. Bridge positions count the residues as written; N and C are the ends. Square brackets hold non-standard residues; d marks the D form. Peptide text beside a SMILES is read from it. * marks the point of attachment. TBMB(SCH2CH2NH-DOTA) = O=C(O)CN1CCN(CC(=O)O)CCN(CC(=O)NCCSCc2cc(C[*:1])cc(C[*:2])c2)CCN(CC(=O)O)CC1; X11 = O=C(CN1CCN2CCN3CCN(CC1)CC(=O)[O][In]([O]C(=O)C2)[O]C(=O)C3)NCCSCc1cc(CSCCN[*:2])cc(C[*:1])c1; mXylylene = c1cc(C[*:1])cc(C[*:2])c1; X51 = O=C(CN1CCC(N[*:1])CC1)[*:2]; X18 = NCCNCC(CNCCN)C(=O)*; Nle = CCCC[C@H](N)C(=O)O; Hexanoyl = CCCCCC(=O)*; Sar = CNCC(=O)O
Readout label: pIC50

Recorded results for 4 molecules are shown here.
| Molecule | Tgt | Readout label | Result |
| --- | --- | --- | --- |
| CCCCCC(=O)N[C@H]1CSCc2cc(CSCCNC(=O)CN3CCN(CC(=O)O)CCN(CC(=O)O)CCN(CC(=O)O)CC3)cc(c2)CSC[C@@H](C(N)=O)NC(=O)[C@H](Cc2ccccc2)NC(=O)[C@H](CCC(N)=O)NC(=O)[C@H]([C@@H](C)O)NC(=O)[C@@H]2CCCN2C(=O)CN(C)C1=O [3BP-3744] (Hexanoyl-C[Sar]PTQFC-NH2; linker 1-7 via TBMB(SCH2CH2NH-DOTA)) | FAP-expressing human WI-38 fibroblasts (Homo sapiens, UniProt Q12884) | pIC50 | > 8.00 |
| CCCCCC(=O)N[C@H]1CSCc2cc(CSCCNC(=O)CN3CCN(CC(=O)O)CCN(CC(=O)O)CCN(CC(=O)O)CC3)cc(c2)CSC[C@@H](C(=O)O)NC(=O)[C@H](Cc2ccccc2)NC(=O)[C@H](CCC(=O)O)NC(=O)[C@H]([C@@H](C)O)NC(=O)[C@@H]2CCCN2C(=O)[C@@H]2CCCN2C1=O [3BP-4250] (Hexanoyl-CPPTEFC-OH; linker 1-7 via TBMB(SCH2CH2NH-DOTA)) | FAP-expressing human WI-38 fibroblasts (Homo sapiens, UniProt Q12884) | pIC50 | > 8.00 |
| CCCC[C@H](NC(=O)CN1CCC(NC(=O)C(CNCCN)CNCCN)CC1)C(=O)N[C@H]1CSCc2cccc(c2)CSC[C@@H](C(=O)O)NC(=O)[C@H](Cc2ccccc2)NC(=O)[C@H](CCC(=O)O)NC(=O)[C@H]([C@@H](C)O)NC(=O)[C@@H]2CCCN2C(=O)[C@@H]2CCCN2C1=O [3BP-4220] (X18-[X51][Nle]CPPTEFC-OH; linker 3-9 via mXylylene) | FAP-expressing human WI-38 fibroblasts (Homo sapiens, UniProt Q12884) | pIC50 | < 6.00 |
| CCCCCC(=O)N[C@H]1CSCc2cc(CSCCNC(=O)CN3CCN(CC(=O)O)CCN(CC(=O)O)CCN(CC(=O)O)CC3)cc(c2)CSC[C@@H](C(=O)N[C@@H](CC(=O)O)C(=O)O)NC(=O)[C@H](Cc2ccccc2)NC(=O)[C@H](CCC(N)=O)NC(=O)[C@H]([C@@H](C)O)NC(=O)[C@@H]2CCCN2C(=O)[C@@H]2CCCN2C1=O [3BP-3665] (Hexanoyl-CPPTQFCD-OH; linker 1-7 via TBMB(SCH2CH2NH-DOTA)) | FAP-expressing human WI-38 fibroblasts (Homo sapiens, UniProt Q12884) | pIC50 | > 8.00 |

Task: Enter measured pIC50, system FAP-expressing human WI-38 fibroblasts (Homo sapiens, UniProt Q12884), for the molecule shown: CCCCCC(=O)N[C@H]1CSCc2cc(CSCCNC(=O)CN3CCN(CC(=O)O)CCN(CC(=O)O)CCN(CC(=O)O)CC3)cc(c2)CSC[C@@H](C(=O)N(C)CC(N)=O)NC(=O)[C@H](Cc2ccccc2)NC(=O)[C@H](CCC(N)=O)NC(=O)[C@H]([C@@H](C)O)NC(=O)[C@@H]2CCCN2C(=O)[C@@H]2CCCN2C1=O
Output: > 8.00

Task: Enter measured pIC50, system FAP-expressing human WI-38 fibroblasts (Homo sapiens, UniProt Q12884), for the molecule shown: CCCCCC(=O)N[C@H]1CSCc2cc(CSCCNC(=O)CCC(=O)NCCCOCCOCCOCCCNC(=O)[C@H](CS)NC(=O)[C@H](CC(=O)O)NC(=O)[C@@H](N)CC(=O)O)cc(c2)CSC[C@@H](C(=O)O)NC(=O)[C@H](Cc2ccccc2)NC(=O)[C@H](CCC(N)=O)NC(=O)[C@H]([C@@H](C)O)NC(=O)[C@@H]2CCCN2C(=O)[C@@H]2CCCN2C1=O
Output: 6.10 to 7.00

Task: Enter measured pIC50, system FAP-expressing human WI-38 fibroblasts (Homo sapiens, UniProt Q12884), for the molecule shown: CCCCCC(=O)N[C@H]1CSCc2cc(CSCCNC(=O)COCCOCCNC(=O)CC[C@H](C(=O)O)N3CCN(CC(=O)O)CCN(CC(=O)O)CC3)cc(c2)CSC[C@@H](C(=O)O)NC(=O)[C@H](Cc2ccccc2)NC(=O)[C@H](CCC(N)=O)NC(=O)[C@H]([C@@H](C)O)NC(=O)[C@@H]2CCCN2C(=O)[C@@H]2CCCN2C1=O
Output: > 8.00

Task: Enter measured pIC50, system FAP-expressing human WI-38 fibroblasts (Homo sapiens, UniProt Q12884), for the molecule shown: CCCCCC(=O)N[C@H]1CSCc2cc(CSCCNC(=O)CN3CCN4CCN5CCN(CC3)CC(=O)[O][In]([O]C(=O)C4)[O]C(=O)C5)cc(c2)CSCCNC(=O)[C@H](Cc2ccccc2)NC(=O)[C@H](CCC(N)=O)NC(=O)[C@H]([C@@H](C)O)NC(=O)[C@@H]2CCCN2C(=O)[C@@H]2CCCN2C1=O [3BP-3713] (Hexanoyl-CPPTQF; linker 1-C via X11)
Output: > 8.00

Values compiled from patent US20220315554A1.
